tested on: PC-3 prostate; assay: NCI-60 one-dose screen, 48 h (100 = growth as untreated, 0 = no growth, -100 = all killed); conditions: 10 µM unless noted
About 83,000 compounds went through this panel and 20% of them were active in at least one assay; those are over-represented in the sample as a whole.
Outcome: 1.0 for growth of at least 70%; 0.0 for anything lower.

# count of solved cases: 6
molecule	discreteLabel
O=C(/C=C/c1ccco1)c1cccc(Nc2nc(Nc3ccccc3)nc(Nc3ccccc3)n2)c1	0.0
O=C(CNc1cccnc1)Nc1ccc(C(=O)/C=C/c2ccc(Cl)cc2)cc1	1.0
COc1ccc2c(c1)C(=O)/C(=C/c1ccc(OCC(=O)c3ccc(Cl)cc3)cc1)O2	0.0
OCc1cnccc1NC12CC3CC(CC(C3)C1)C2	1.0
Cc1ccn2cc(Cc3cc(=O)oc4c3ccc3ccccc34)c(=O)nc2c1	1.0
O=C(NCCNc1nccc(-c2c(-c3cccc(O)c3)nc3sccn23)n1)c1cccc(C(F)(F)F)c1	0.0

IN: Has "O=C(CSc1nnc(-c2ccccc2)o1)Nc1ccc(C(=O)/C=C/c2ccccc2)cc1" a recorded growth greater than or equal to 70%?
OUT: 1.0

IN: Has "c1ccc(CNCCN(CCNCc2ccccn2)Cc2ccc3ccccc3c2)nc1" a recorded growth greater than or equal to 70%?
OUT: 0.0

IN: Has "CCOc1ccccc1C(=O)N1CCN(c2cc(Cl)cc(Cl)c2)CC1" a recorded growth greater than or equal to 70%?
OUT: 0.0

IN: Has "O=C(Nc1ccc(-n2cc(-c3ccncc3)c(-c3ccc(O)c(Cl)c3)n2)cc1)Nc1ccc(Cl)c(C(F)(F)F)c1" a recorded growth greater than or equal to 70%?
OUT: 0.0

IN: Has CC(NCCC(c1ccccc1)c1ccccc1)c1ccccc1 (stereo not given) a recorded growth greater than or equal to 70%?
OUT: 0.0

====

Recorded measurements of growth, one per entry
system: RPMI-8226 leukemia; test: NCI-60 one-dose screen, 48 h (100 = growth as untreated, 0 = no growth, -100 = all killed); settings: 10 µM unless noted
About 83,000 compounds went through this panel and 20% of them were active in at least one assay; those are over-represented in the sample as a whole.
Lab book: enter the figure in %, no units written.

compound	attributeMeasured	quantitativeReadout
COc1cc(C(=O)NNC(=O)c2ccccc2C(=O)O)cc(OC)c1OC	growth	10.8
CC(C)(C)OC(=O)N1CCN(CCn2cc(C(F)(F)F)c3c(Cl)ncnc32)CC1	growth	86.3
CC(C)(C)NC(C1=CC(C)(C)c2ccccc2C1=O)c1ccccc1 (centres undefined)	growth	-44.9
N#CC(C#N)=C(C#N)c1c[nH]c2ccccc12	growth	68.4
Nc1nc(Nc2ccc(OCc3cccc(F)c3)cc2)c2c(n1)[nH]c1ccc(O)cc12	growth	-37.5

IN: # return growth of "c1ccc2c(c1)Oc1cccnc1-n1nccc1-2" (system: RPMI-8226 leukemia)
OUT: 96.9

IN: # return growth of "c1ccc2nc(Cn3cc[n+](Cc4ccc5ccccc5n4)c3)ccc2c1" (system: RPMI-8226 leukemia)
OUT: 29.6

IN: # return growth of "O=C(CSc1nnc(-c2ccccc2)o1)Nc1ccc(C(=O)/C=C/c2ccccc2)cc1" (system: RPMI-8226 leukemia)
OUT: 2.35

IN: # return growth of "O=C(Nc1ccc(-n2cc(-c3ccncc3)c(-c3ccc(O)c(Cl)c3)n2)cc1)c1cc(C(F)(F)F)cc(C(F)(F)F)c1" (system: RPMI-8226 leukemia)
OUT: 27.9

IN: # return growth of "COc1cc2ncnc(Oc3ccc(NC(=O)Nc4ccc(CN5CCOCC5)c(C(F)(F)F)c4)c4ccccc34)c2cc1OC" (system: RPMI-8226 leukemia)
OUT: -20.4

IN: # return growth of COC1OCC(OS(=O)(=O)c2ccc(C)cc2)C(OC(=O)c2ccccc2)C1OC(=O)c1ccccc1 (centres undefined) (system: RPMI-8226 leukemia)
OUT: 45.5
